Origin of values: ChEMBL document CHEMBL1201862

Tested on: PC-3
Assay: NCI tumour cell line growth inhibition, 48 h
Calls of active or inactive are those of the source. Rule as the data show it: active = GI50 up to about 1.1 µM and inactive = higher.
Reply using exactly one outcome from 1.0 for active, 0.0 for inactive

Some solved entries appear below for comparison.
Molecule: O=C(CSc1nnc(-c2ccccn2)s1)N/N=C/c1ccc([N+](=O)[O-])cc1
Class: 0.0
--
Molecule: Cc1cc(NC(=O)NC(=O)c2ccccc2NC(=O)CN)ccc1Oc1ncc(Br)cn1
Class: 1.0
--
Molecule: CC1=C2CC(C)(C)/C=C\C(=O)/C(C)=C\C3=C[C@H](C)C[C@]3(O2)C1=O
Class: 0.0
--
Molecule: O=c1c(-c2ccccc2)c(SCCCN2CCN(c3cccc(Cl)c3)CC2)n(-c2ccccc2)c(=S)n1-c1ccccc1
Class: 0.0
--
Molecule: Fc1ccc(C(OCCN2CC3CC2CN3)c2ccc(F)cc2)cc1 (stereo not given)
Class: 0.0

Record lookup: outcome of this test for CC1=C[C@@H](C)C[C@]2(C)CC[C@H](O2)[C@]23CC[C@](C)(C[C@H](O2)[C@@H]2O[C@@](C)(CC2=O)[C@@H](O)[C@H]2CC[C@@]4(CCC[C@@H](O4)[C@H](C)C(=O)O[C@H]4C[C@H]([C@]5(O)OCC[C@H](C)[C@@H]5O)O[C@H]4C=C1)O2)O3 ?
1.0

Record lookup: outcome of this test for CCCNC1=Nc2ccccc2N(Cc2ccccc2)CC1 ?
0.0

Record lookup: outcome of this test for COC(=O)c1cc2c3c(ccc2[nH]1)N(C(=O)c1cc2cc(OC)c(OC)c(OC)c2[nH]1)CC3CCl (stereo not given) ?
0.0

Record lookup: outcome of this test for O=C(/N=N/c1ccc(Br)cc1)NNc1ccc(Br)cc1 ?
0.0

Record lookup: outcome of this test for COc1ccc2c(C=O)c3n(c(=O)c2c1OC)CCc1cc2c(cc1-3)OCO2 ?
0.0

Record lookup: outcome of this test for COc1ccc2c(c1OC)C(=O)O[C@@H]2[C@H]1c2cc3c(cc2CCN1C)OCO3 ?
0.0

Record lookup: outcome of this test for O=C(O)C1CCCCC1C(=O)Nn1cnnc1 (stereo not given) ?
0.0

Record lookup: outcome of this test for c1ccc2c(Nc3ncco3)cccc2c1 ?
0.0

Record lookup: outcome of this test for C/C(=N\NC(N)=O)C(CN(C)C)C(c1ccccc1)c1c(O)c2ccccc2oc1=O (stereo not given) ?
0.0

Record lookup: outcome of this test for Cc1ccc2c(=O)c(-c3nnc(N)s3)c[nH]c2n1 ?
0.0

Record lookup: outcome of this test for CC1=C(C#N)S(=O)(=O)c2c(oc(C)c2C)N1 ?
0.0

---

Test system: XF498
Assay: NCI tumour cell line growth inhibition, 48 h
Activity calls are given as the source filed them. Cut-off read from the data, not from the text of the source: active = GI50 up to about 1.1 µM and inactive = higher.
Readout label: GI50

Worked examples follow.
Compound: CN(C)CC1CC/C(=C\c2ccc(Cl)c(Cl)c2)C1=O (centres undefined)
GI50: > 46.8 µM (inactive)

Compound: O=C1NC2(CCCCCC2)C2CCCCCCC12O (centres undefined)
GI50: > 100 µM (inactive)

Compound: Cn1cnc2nc(Cl)nc(NC(C)(C)C(C)(C)O)c21
GI50: > 100 µM (inactive)

Query compound follows.
Please look up its GI50: CCN(CC)CC(C(=O)Nc1c(C)cccc1C)/C(C)=N\NC(=O)C[N+](C)(C)C (centres undefined)
> 100 µM (inactive)

---

System: DLD-1
Assay: NCI tumour cell line growth inhibition, 48 h
The source made the active and inactive calls. No stated cut-off is given here; in the data, active = GI50 up to about 1.1 µM and inactive = higher.
Readout label: GI50

Worked examples follow.
Compound: COC(=O)c1ccc(OCc2ccc3oc(=O)c(-c4ccccc4)nc3c2)cc1
Readout label: GI50
Data value: 15.2 µM (inactive)
//
Compound: CNC(=O)/C(=C/c1ccc(OC)cc1)c1cc(OC)c(OC)c(OC)c1
Readout label: GI50
Data value: 2.25 µM (inactive)
//
Compound: C/C(CC(=O)Nc1ccc([N+](=O)[O-])cc1)=N\Nc1ccc([N+](=O)[O-])cc1[N+](=O)[O-]
Readout label: GI50
Data value: 39.4 µM (inactive)
//
Compound: CC(C)C1CO[C@]2(C)CCC(=O)N12 (some centres undefined)
Readout label: GI50
Data value: > 100 µM (inactive)
//
Compound: Cn1cnc2nc(Cl)nc(NC(C)(C)C(C)(C)O)c21
Readout label: GI50
Data value: > 100 µM (inactive)

Please look up its GI50: O=C(Nc1ccc(Cl)c(Cl)c1)C(=O)Nn1c(S)nc2ccccc2c1=O
> 100 µM (inactive)

Please look up its GI50: O=c1n(CC2CO2)c(=O)n(CC2CO2)c(=O)n1CC1CO1 (centres undefined)
62.1 µM (inactive)

Please look up its GI50: Cn1c(=O)c2[nH]cnc2n(CC(N)=O)c1=O
> 100 µM (inactive)

Please look up its GI50: O=C(NCCO)c1ccc([N+](=O)[O-])cc1
> 100 µM (inactive)

---

GI50 values, listed per item
Tested on: TK-10
Test: NCI tumour cell line growth inhibition, 48 h
The source made the active and inactive calls. No stated cut-off is given here; in the data, active = GI50 up to about 1.1 µM and inactive = higher.

Molecule: CC12OC3(O)C4C5CC(C6C5C3C61)C42 (stereo not drawn)
GI50: > 100 µM (inactive)
--
Molecule: N=C(N)NS(=O)(=O)c1ccc(NC(=O)c2ccc3nc4ccccc4c(N)c3c2)cc1
GI50: > 100 µM (inactive)
--
Molecule: O=C(Cn1ccnc1[N+](=O)[O-])NCc1ccc(F)cc1
GI50: > 100 µM (inactive)
--
Molecule: CCC/C(C)=N/NC(=S)SC.CCC/C(C)=N/NC(=S)SC.[Zn+2]
GI50: 11.6 µM (inactive)
--
Molecule: CC(=O)SC(SC(C)=O)SC(C)=O
GI50: > 100 µM (inactive)

Query molecule follows.
Please look up its GI50: C/C(=C/C(=O)N(C)c1ccccc1Cl)O[Si](C(C)C)(C(C)C)C(C)C
33.5 µM (inactive)

---

GI50 values, listed per item
Tested on: DMS-114
Assay: NCI tumour cell line growth inhibition, 48 h
Calls of active or inactive are those of the source. No stated cut-off is given here; in the data, active = GI50 up to about 1.1 µM and inactive = higher.

Smiles entry: CCOc1ccc(NC(=O)C2=C(C)NC(C)=C(C(=O)Nc3ccc(OCC)cc3)C2c2ccc(O)c(OC)c2)cc1
Study system: DMS-114
Data value: 56.5 µM (inactive)
//
Smiles entry: CNC(=O)/C(=C/c1ccc(OC)cc1)c1cc(OC)c(OC)c(OC)c1
Study system: DMS-114
Data value: 2.3 µM (inactive)
//
Smiles entry: Cc1ccc(C)c(NC(=O)c2cc(-c3ccc([N+](=O)[O-])cc3)nc(N)n2)c1
Study system: DMS-114
Data value: > 100 µM (inactive)

Please look up its GI50: CCOC(=O)COS(=O)(=O)C(F)(F)F
17.1 µM (inactive)

Please look up its GI50: O=C1Nc2ccccc2N/C1=C\C(=O)c1ccccc1O
> 100 µM (inactive)

---

Test system: SF-295
Experiment: NCI tumour cell line growth inhibition, 48 h
The source made the active and inactive calls. Cut-off read from the data, not from the text of the source: active = GI50 up to about 1.1 µM and inactive = higher.
GI50 values, listed per item

Molecule: Cc1ccc(/C=C2\NC(=S)NC2=O)cc1
Study system: SF-295
Data value: > 100 µM (inactive)
//
Molecule: O=C(Nc1ccc(Cl)c(Cl)c1)C(=O)Nn1c(S)nc2ccccc2c1=O
Study system: SF-295
Data value: > 100 µM (inactive)
//
Molecule: Cc1nc2c(=O)n(C)ncc2[nH]1
Study system: SF-295
Data value: > 100 µM (inactive)
//
Molecule: COc1ccc(Oc2nc(C#CC(C)(C)O)nc(Oc3ccc(OC)cc3)n2)cc1
Study system: SF-295
Data value: 16.7 µM (inactive)
//
Molecule: CCOC1CN=C(Nc2cccc3ccccc23)S1 (stereo unspecified)
Study system: SF-295
Data value: > 10 µM (inactive)
//
Molecule: CCCNC1=Nc2ccccc2N(Cc2ccccc2)CC1
Study system: SF-295
Data value: 24.9 µM (inactive)

# query: GI50 | item C/C(=C/C(=O)N(C)c1ccccc1Cl)O[Si](C(C)C)(C(C)C)C(C)C | system: SF-295
21.8 µM (inactive)

# query: GI50 | item CC(=O)C1C(c2ccccc2)C2(C)OC(=O)C(C#N)C12C (stereo unspecified) | system: SF-295
> 100 µM (inactive)

# query: GI50 | item O=C(NCCC(F)(F)C(F)(F)C(F)(F)C(F)(F)F)NC1OC(CO)C(O)C(O)C1O (stereo unspecified) | system: SF-295
> 100 µM (inactive)

# query: GI50 | item Cc1c2ccccc2nc2[nH]c3ccncc3c12 | system: SF-295
31.6 µM (inactive)

# query: GI50 | item Cn1cc(S(=O)(=O)NC(=O)Nc2ccc(Cl)cc2)c(=O)c2ccc(Cl)cc21 | system: SF-295
> 100 µM (inactive)

---

System: HOP-62
Assay: NCI tumour cell line growth inhibition, 48 h
Calls of active or inactive are those of the source. Rule as the data show it: active = GI50 up to about 1.1 µM and inactive = higher.
Reply using exactly one outcome from active, inactive

Some solved entries appear below for comparison.
Compound: O=C1C2C3C=CC(C2C(=O)N1CN1CCSCC1)C1C2C(=O)N(CN4CCSCC4)C(=O)C2C31 (centres undefined)
Class: inactive
--
Compound: CC12OC3(O)C4C5CC(C6C5C3C61)C42 (centres undefined)
Class: inactive
--
Compound: CC(C)(C)c1cc(Oc2ccc(C#N)c(C#N)c2)cc(C(C)(C)C)c1
Class: inactive

Record lookup: outcome of this test for O=[N+]([O-])c1ccc(NN=C2c3ccccc3Cc3ccccc32)c([N+](=O)[O-])c1 ?
inactive

Record lookup: outcome of this test for Cc1ccc([Se](=C(C(=O)c2ccccc2)C(=O)c2ccccc2)c2ccc(C)cc2)cc1 ?
inactive

Record lookup: outcome of this test for C=Cc1cc(OC)c2c(c1)c(=O)oc1c2cc(OC)c2c(O)ccc(C3OC(C)C(O)C(C)(O)C3O)c21 (centres undefined) ?
active

Record lookup: outcome of this test for CCOc1ccc(NC(=O)C2=C(C)NC(C)=C(C(=O)Nc3ccc(OCC)cc3)C2c2ccc(O)c(OC)c2)cc1 ?
inactive

Record lookup: outcome of this test for CC[P+](C#Cc1ccccc1)(c1ccccc1)c1ccccc1 ?
inactive
